Measurement Protocol: Test of water solubility of the compounds
Protocol Conditions: water, thermodynamic from solid
Value Kind: solubility (µg/mL)
Respond numerically; units are µg/mL and should not be typed.

// known answers, use as guide
INSERT INTO assay_data (compound, result_number) VALUES
  ('CCCOCCOCCOc1ccc(OC)c(F)c1C(=O)c1ccc(C(=O)N[C@@H]2CNC[C@H]2NC(=O)c2ccc3cn[nH]c3c2)cc1.Cl [JK-M02P]', 4500),
  ('CCCOc1ccc(O)c(F)c1C(=O)c1ccc(C(=O)N[C@@H]2CNC[C@H]2NC(=O)c2ccc3cn[nH]c3c2)cc1', 1500),
  ('CCCOCCOCCOc1ccc(F)c(F)c1C(=O)c1ccc(C(=O)N[C@@H]2CNC[C@H]2NC(=O)c2ccc3cn[nH]c3c2)cc1.Cl [JK-02P]', 4400),
  ('COc1ccc(OCCOCCO)c(C(=O)c2ccc(C(=O)N[C@@H]3CNC[C@H]3NC(=O)c3ccc4cn[nH]c4c3)cc2)c1F.Cl [JK-M02H]', 8000),
  ('Cl.O=C(N[C@@H]1CNC[C@H]1NC(=O)c1ccc2cn[nH]c2c1)c1ccc(C(=O)c2c(OCCOCCO)ccc(F)c2F)cc1 [JK-02H]', 7400);

For the compound CCCOc1ccc(F)c(F)c1C(=O)c1ccc(C(=O)N[C@@H]2CNC[C@H]2NC(=O)c2ccc3cn[nH]c3c2)cc1 [JK-02A] , give its measured solubility value.
1400

---

Measurement Protocol: Test of water solubility of the compounds
Protocol Conditions: about 0.1 g sample, room temperature, water added until dissolved
Value Kind: Volume of added water (mL)
Respond numerically; units are mL and should not be typed.

Fill in Volume of added water for record Cl.O=C(N[C@@H]1CNC[C@H]1NC(=O)c1ccc2cn[nH]c2c1)c1ccc(C(=O)c2c(OCCOCCO)ccc(F)c2F)cc1 [JK-02H]
13.5

Provide one value: measured Volume of added water of CCCOCCOCCOc1ccc(F)c(F)c1C(=O)c1ccc(C(=O)N[C@@H]2CNC[C@H]2NC(=O)c2ccc3cn[nH]c3c2)cc1.Cl [JK-02P]
22.5

Query Volume of added water for COCCOCCOCCOCCOCCOCCOCCOc1ccc(OC)c(F)c1C(=O)c1ccc(C(=O)N[C@@H]2CNC[C@H]2NC(=O)c2ccc3cn[nH]c3c2)cc1.Cl [JK-M07M]
7.5

Identify the reported Volume of added water for the following entry. CCCOc1ccc(O)c(F)c1C(=O)c1ccc(C(=O)N[C@@H]2CNC[C@H]2NC(=O)c2ccc3cn[nH]c3c2)cc1 [compound 46]
66.5

Report Volume of added water for CCCOc1ccc(F)c(F)c1C(=O)c1ccc(C(=O)N[C@@H]2CNC[C@H]2NC(=O)c2ccc3cn[nH]c3c2)cc1 [JK-02A]
71.5

Provide one value: measured Volume of added water of COc1ccc(OCCOCCO)c(C(=O)c2ccc(C(=O)N[C@@H]3CNC[C@H]3NC(=O)c3ccc4cn[nH]c4c3)cc2)c1F.Cl [JK-M02H]
12.5

Name the recorded Volume of added water of the item COCCOCCOCCOc1ccc(F)c(F)c1C(=O)c1ccc(C(=O)N[C@@H]2CNC[C@H]2NC(=O)c2ccc3cn[nH]c3c2)cc1.Cl [JK-03M] in your answer.
16.5

Respond only with Volume of added water recorded for CCCOCCOCCOc1ccc(OC)c(F)c1C(=O)c1ccc(C(=O)N[C@@H]2CNC[C@H]2NC(=O)c2ccc3cn[nH]c3c2)cc1.Cl [JK-M02P]
22.0
